Subject of test: Myo3, P36006
Method notes: SPOT array
Run conditions: median of control spots 468
Exercise: for every item that follows, state its recorded SPOT intensity.
The answer should be a number; do not append a unit.

Exercise: Could you share which SPOT intensity value was measured for GATNNAPTLPKRKNP ?
Solution: 0

Exercise: I would be grateful if you could share the reported SPOT intensity for GAGERPRLVPRPINV .
Solution: 0

Exercise: Recorded SPOT intensity of LRWRHKFFLPAIAAI , please.
Solution: 0

Exercise: Reported SPOT intensity for DLPLPDLPPEPPTEL : what is it?
Solution: 262

Exercise: Please look up its SPOT intensity: RTRRRPPPPPIPSTQ
Solution: 487

Exercise: # lookup: SPOT intensity of LKVTPGRRAPTISKI
Solution: 80

Exercise: Which SPOT intensity is listed for RMVRRRPLRVQFSAR ?
Solution: 50
